// pKd lookup, one value per entry
molecular target: WT RBD (SARS-CoV-2 Wuhan-Hu-1 spike receptor binding domain) (SARS-CoV-2 (Wuhan-Hu-1), UniProt P0DTC2); assay: BLI; conditions: both partners purified
Schema: pKd number; meaning minus log10 of the concentration expressed in molar units.

Ask | Given B1012 (antibody, V domains shown, source: 293-6E cells, transfected, purified (Protein G Sepharose)) VH: QVQLVQSGAEVKKPGASVKVSCKASGYTFISYYTHWVRQAPGQGLEWMGIINPSDGYTSYAQKFQGRVTMTRDTSASTVYMELSSLRSEDTAVYYCARDSSIAARVVAWGQGTLVTVSS VL: DIQMTQSPSSLSASVGDRVTITCQASQDIGNYLNWYQQKPGKAPKLLIFDASNLEAGVPSRFSASGSGTDFTFAISSLQPEDIAAYYCQQHDDLPYSFGQGTTLEIK , state its recorded pKd.
Reply | 9.24

Ask | Given B2058 (antibody, V domains shown, source: 293-6E cells, transfected, purified (Protein G Sepharose)) VH: EVQLVESGGGLIQPGGSLRLSCAASGLTVSSNYMSWVRQAPGKGLEWVSVIYPGGSTFYADSVKGRFTISRDNSKNTLYLQLNSLRADDTAVYFCARGDGYTDYYYGLDVWGQGTTVTVSS VL: DIQLTQSPSSLSASVGDRVTITCRASQSISSYLNWYQQKPGKAPKLLIYAASSLQSGVPSRFSGSGSGTDFTLTISSLQPEDFATYYCQQRGFGQGTKVEIK , state its recorded pKd.
Reply | 8.99

Ask | Given C099 (antibody, V domains shown, source: 293-6E cells, transfected, purified (Protein G Sepharose)) VH: EVQLVESGGGLIQPGGSLRLSCAASGITVSSNYMSWVRQAPGKGLEWVSVMYAGGSTFYADSVKGRFTISRDDSKNTLFLQMNSLRAEDTAIYYCARDLYSSGGTDIWGQGTMVTVSS VL: EIVLTQSPGTLSLSPGERATLSCRASQSIGSSYLAWYQQKPGLAPRLLIYGASRRATGIPDKFSGSGSGADFTLTISRLEPEDFAVYYCQQYGSSPGTFGQGTKVEIK , state its recorded pKd.
Reply | 11.67
